Molecular target: T1, hu-MCSP(D3 domain)-avi-his (human, UniProt Q6UVK1 1582-2224)
T1 construct: Recombinant D3 domain with avi and his tags; also called human MCSP(D3 domain)-avi-his; Human MCSP D3
T1 sequence: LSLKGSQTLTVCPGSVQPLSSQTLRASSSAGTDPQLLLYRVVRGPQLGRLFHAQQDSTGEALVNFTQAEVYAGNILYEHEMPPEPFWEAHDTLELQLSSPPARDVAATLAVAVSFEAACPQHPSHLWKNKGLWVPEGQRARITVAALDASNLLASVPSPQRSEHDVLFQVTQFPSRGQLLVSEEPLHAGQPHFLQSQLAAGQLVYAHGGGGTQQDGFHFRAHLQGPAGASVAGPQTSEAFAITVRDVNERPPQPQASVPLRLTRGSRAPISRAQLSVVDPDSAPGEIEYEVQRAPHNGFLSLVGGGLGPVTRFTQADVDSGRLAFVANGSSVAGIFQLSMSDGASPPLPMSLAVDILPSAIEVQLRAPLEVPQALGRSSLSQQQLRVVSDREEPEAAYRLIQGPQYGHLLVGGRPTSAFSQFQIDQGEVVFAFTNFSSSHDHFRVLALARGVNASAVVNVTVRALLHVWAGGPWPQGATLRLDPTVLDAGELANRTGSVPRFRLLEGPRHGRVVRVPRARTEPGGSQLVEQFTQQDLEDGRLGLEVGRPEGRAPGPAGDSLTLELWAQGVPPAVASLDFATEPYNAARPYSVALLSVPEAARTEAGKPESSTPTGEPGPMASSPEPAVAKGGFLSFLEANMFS
Experiment: SPR ProteOn XPR36, 25 C; IgG captured via anti-human F(ab')2, MCSP D3 as analyte
readout type: Kd (nM)
The reply should contain only the number, in nM.

// below: answered binders
[
  {
    "binder": "M4-3(C1)/ML2(G3) IgG (antibody, V domains shown, Human IgG1) VH: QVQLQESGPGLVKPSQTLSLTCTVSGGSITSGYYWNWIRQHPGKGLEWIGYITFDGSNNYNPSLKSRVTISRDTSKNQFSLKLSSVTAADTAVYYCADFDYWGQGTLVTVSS VL: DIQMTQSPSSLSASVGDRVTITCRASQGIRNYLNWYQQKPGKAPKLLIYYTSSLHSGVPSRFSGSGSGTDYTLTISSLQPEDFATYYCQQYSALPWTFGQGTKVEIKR",
    "units label": "nM",
    "Kd": 0.07
  },
  {
    "binder": "M4-3(B8)/ML2 IgG (antibody, V domains shown, Human IgG1) VH: QVQLQESGPGLVKPSQTLSLTCTVSGGSITSGYYWNWIRQHPGKGLEWIGYITFDGRNNYNPSLKSRVTISRDTSKNQFSLKLSSVTAADTAVYYCADFDYWGQGTLVTVSS VL: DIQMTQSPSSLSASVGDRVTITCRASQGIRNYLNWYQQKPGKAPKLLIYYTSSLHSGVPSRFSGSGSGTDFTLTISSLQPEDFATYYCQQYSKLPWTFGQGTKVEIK",
    "units label": "nM",
    "Kd": 0.9
  }
]

Problem: For the binder shown here, M4-3(A7)/ML2 IgG (antibody, V domains shown, Human IgG1) VH: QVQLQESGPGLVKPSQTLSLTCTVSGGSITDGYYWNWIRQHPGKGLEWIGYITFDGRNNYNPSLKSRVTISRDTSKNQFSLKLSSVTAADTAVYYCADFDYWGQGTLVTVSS VL: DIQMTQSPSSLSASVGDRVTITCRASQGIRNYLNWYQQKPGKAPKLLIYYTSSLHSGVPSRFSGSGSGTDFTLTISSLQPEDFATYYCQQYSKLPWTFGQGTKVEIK , give the reported Kd.
Result: 0.8
